target_or_test_system: SARS-CoV-2 spike protein on pseudotyped lentivirus (Wuhan Reference Pseudovirus) (SARS-CoV-2, UniProt P0DTC2 14-1273)
test_details: cell-based or functional assay
Provide the recorded infectivity % under 10 ug/mL VHH treatment for the entries that follow.
Note: unit % is implicit; provide only the numeric part.

Param item = PP1136 MBP-4B0F-PAPA-R5a-C5-H6 (VHH, Form: Heptamer) VHH: QVQLVESGGGLVQPGGSLRLSCAASGDIFSINALHWFRQAPGKQREEVAAITSGGSTGYADSVKGRFTISRDNAKNTVYLQMNSLKPEDTAVYYCAAQQARGGLDSDYWGQGTQVTVSS ; retrieve measured infectivity % under 10 ug/mL VHH treatment.
1.53

Need infectivity % under 10 ug/mL VHH treatment of PP1097 MBP-5HVZ-PAPA-RN-5-H6 (VHH) VHH: QVQLVESGGGLVQPGGSLRLSCAASGSSFRILAMHWYRQAPGKNREWVAVITSNGNTYYADSVKGRFTISRDNAKNTVYLQMNSLKPEDTAVYYCNADTLDLDDGATYNYWGQGTQVTVSS , thanks.
18.6
